Target: Diacylglycerol O-acyltransferase 1 (Homo sapiens, UniProt O75907)
Sequence (O75907 whole entry): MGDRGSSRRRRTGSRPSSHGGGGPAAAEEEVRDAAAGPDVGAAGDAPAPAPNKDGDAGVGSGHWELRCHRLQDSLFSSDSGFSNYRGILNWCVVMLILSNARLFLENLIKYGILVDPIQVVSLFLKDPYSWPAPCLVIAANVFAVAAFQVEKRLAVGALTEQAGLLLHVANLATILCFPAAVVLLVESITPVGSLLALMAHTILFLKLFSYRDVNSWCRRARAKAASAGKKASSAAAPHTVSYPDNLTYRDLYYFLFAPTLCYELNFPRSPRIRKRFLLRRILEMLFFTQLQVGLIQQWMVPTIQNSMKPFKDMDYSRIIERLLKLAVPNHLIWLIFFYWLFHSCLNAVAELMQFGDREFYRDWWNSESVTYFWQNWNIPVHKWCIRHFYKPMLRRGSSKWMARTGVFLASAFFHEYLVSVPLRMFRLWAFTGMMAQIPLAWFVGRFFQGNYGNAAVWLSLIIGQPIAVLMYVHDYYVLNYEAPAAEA
Experiment: Inhibition of human DGAT1 expressed in yeast membrane fraction assessed as inhibition of triglyceride formation using diolein/oleoyl-CoA as substrate measured after 1 hr by 7-diethylamino-3-(4'-maleimidylphenyl)-4-methylcoumarin based fluorescence analysis
So I've got a bunch of compounds here, and I need their pIC50 values.
Keep it numeric: pIC50 is minus log10 of the concentration in mol/L.

The recorded pIC50 for O=C(O)C1CCC2(CCN(c3ccc(-c4nc5cc(C(F)(F)F)ccc5[nH]4)cn3)CC2)CO1 (stereo not drawn) is 6.44

The recorded pIC50 for O=C1OC2(CCN(c3ccc(-c4nc5cc(Cl)ccc5[nH]4)cn3)CC2)c2ccccc21 is 7.28

The recorded pIC50 for FC(F)(F)c1ccc2[nH]c(-c3ccc(N4CCC(c5ccccn5)CC4)nc3)nc2c1 is 7.21

The recorded pIC50 for FC(F)(F)c1ccc2[nH]c(-c3ccc(N4CCC5(CC4)OC(Cc4cc(Cl)cc(Cl)c4)c4ccccc45)nc3)nc2c1 (stereo not drawn) is 5.06

The recorded pIC50 for O=C1OC2(CCN(c3ccc(-c4nc5cc(Cl)ccc5[nH]4)cn3)CC2)c2ncccc21 is 8.00

The recorded pIC50 for FC(F)(F)c1ccc2[nH]c(-c3ccc(N4CCC(c5ccccc5)(c5ccccc5)CC4)nc3)nc2c1 is 5.78

The recorded pIC50 for O=C1OC2(CCN(c3ccc(-c4nc5cc(C(F)(F)F)ccc5[nH]4)cn3)CC2)CN1c1ccccc1 is 5.85

The recorded pIC50 for O=S1(=O)CCC(N2CCN(c3ccc(-c4nc5cc(C(F)(F)F)ccc5[nH]4)cn3)CC2)C1 (stereo not drawn) is 6.88
